# Test system: P388 leukemia ip, CD2F1 mice, survival T/C
# METHOD DESCRIPTION: NCI In Vivo Anticancer Drug Screen. Data for tumor model P388 Leukemia (intraperitoneal) in CD2F1 (CDF1) mice
# CONDITION DESCRIPTION: endpoint: median survival time; dose: 100.0 mg/kg/injection; schedule: Q01DX005 (ip); vehicle: saline
Toxic doses and inconclusive results are not listed. How the source made its calls: active means survival T/C of 150% or more; inactive means T/C below 125% in these data.
Please answer using one outcome listed in y = active, n = inactive

| COMPOUND | LABEL VALUE |
| --- | --- |
| CCN(CC)CCN1CC(=O)N2CCCCN2C(=O)C1 | n |

Short answer needed: outcome of this test for C/C(=C\c1ccccc1)c1ccccn1 ?
n

I'd appreciate the recorded outcome for CC1(C)CC(=O)C=C(NCCO)C1 from this test.
n

Hi team, can someone confirm the assay call for CNP1(NC)=NP(NC)(NC)=NP(NC)(NC)=NP(NC)(NC)=N1 ?
n

Tell me the assay call for O=C1OCC23CCC4C1C42CC1(CC3)OCCO1 (stereo unspecified) please.
n

Can you look up the reported call for Cc1nc(N)nc2c1CCC(O)S2 (stereo unspecified) for me?
n

Lab log entry: O=C(O)CCSSCCCCCS(=O)O — outcome as called in the assay?
n

Status in this test for CNC(=O)OCc1nc(SC)n(C)c1COC(=O)NC ?
y

Recorded test outcome, item CC(C)(C#N)NCCCNC(C)(C)C#N
n

Field: outcome | Entry: CCCCCCCCCCCCC(O)CCC1CCCCN1 (stereo unspecified)
n

Recorded test outcome, item CCCCN(CCNc1cc(OC)cc2cccnc12)C1CCCC1
n

---

# Test system: P388 leukemia ip, CD2F1 mice, survival T/C
# METHOD DESCRIPTION: NCI In Vivo Anticancer Drug Screen. Data for tumor model P388 Leukemia (intraperitoneal) in CD2F1 (CDF1) mice
# CONDITION DESCRIPTION: endpoint: median survival time; dose: 50.0 mg/kg/injection; schedule: Q01DX005 (ip); vehicle: saline; higher = longer survival
Inconclusive results and toxic doses are left out.
Reported values of T/C for individual entries

These solved cases illustrate the format of a correct answer.
| COMPOUND | T/C |
| --- | --- |
| CN(C)CCN(N)CCN(C)C | 94 % of control |
| [Cl][Sn]1([Cl])[CH2]CC[CH2][Sn]([Cl])([Cl])[CH2]CC[CH2][Sn]([Cl])([Cl])[CH2]CC[CH2][Sn]([Cl])([Cl])[CH2]CC[CH2]1 | 93 % of control |
| CC1=NN(C(=O)CC(=O)Nc2ccc(C(=O)O)cc2)C(=O)C1N=Nc1ccccc1 (stereo not given) | 105 % of control |
| CNP1(NC)=NP(NC)(NC)=NP(NC)(NC)=NP(NC)(NC)=N1 | 115 % of control |

Entry CC1=CC(OC(C)C)OC1=O (stereo not given) : reported T/C = ?
108 % of control

---

# System: P388 leukemia ip, CD2F1 mice, survival T/C
# METHOD DESCRIPTION: NCI In Vivo Anticancer Drug Screen. Data for tumor model P388 Leukemia (intraperitoneal) in CD2F1 (CDF1) mice
# CONDITION DESCRIPTION: endpoint: median survival time; dose: 25.0 mg/kg/injection; schedule: Q04DX002 (ip); vehicle: saline with Tween-80; higher = longer survival
Inconclusive results and toxic doses are left out.
Measured T/C, listed per entry.

Known T/C results, listed for orientation:
| COMPOUND | T/C |
| --- | --- |
| O=C1C(C(=Nc2ccc(Cl)cc2)c2ccccc2)=C(O)c2ccccc21 | 95 % of control |
| CN=C(N)N/N=C(/C)c1ccc2c(c1)Cc1cc(I)ccc1-2 | 106 % of control |
| COC(=O)c1ncn(Cc2ccccc2)c1N | 101 % of control |
| COc1ccc(NC(=O)C2C(=O)N(c3ccc(OC)cc3)C(=O)/C2=N/N=C(N)N)cc1 (stereo not given) | 99 % of control |

Now let's try a different one.
Would you mind telling me what T/C value was observed for COc1ccc2[nH]c3cc4ccncc4cc3c2c1 ?
122 % of control
